// provenance: the RNAGym collection of RNA variant scans (doi:10.7554/elife.80360)

B1: HDV Ribozyme (parent)
chain: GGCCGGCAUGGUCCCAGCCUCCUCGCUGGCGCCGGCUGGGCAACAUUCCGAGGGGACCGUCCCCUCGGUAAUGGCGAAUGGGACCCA

variants of: B1; assay: self-cleavage, relative activity (ratio to wild type); higher = more cleavage; co-transcriptional
Kindly supply the reported self-cleavage values for the records listed here.
Keep the answer to the number alone.

Input line: GET /values?readout=self-cleavage&item= G40A C86U
Output line: 0.989

Input line: Another: C14G C84A
Output line: 0.519

Input line: Another: C22G A83C
Output line: 0.0898

Input line: Another: G10C G50C
Output line: 0.923

Input line: Another: G73U A77U
Output line: 0.0811

Input line: Another: A42G C57A
Output line: 0.527
